assay: LNP zeta potential (Zetasizer); assay type: physicochemical; conditions: LNP with mRNA (SEQ ID NO: 2)
PARAMETER: Zeta (mV)

- MOLECULE: "CCCCCCCCCCC(CCCCCCCC)COC(=O)CCCCCN(CCCCCC(=O)OCC(CCCCCCCC)CCCCCCCCCC)CCCOC(=O)NCCN1CCCCC1 (stereo not shown)"
  VALUE OBSERVED: 0.9875
- MOLECULE: "CCCCCCCCC(CCCCCC)C(=O)OCCCCCCCCN(CCCCCCCCOC(=O)C(CCCCCC)CCCCCCCC)CCCOC(=O)NCc1ncc[nH]1 (stereo not shown)"
  VALUE OBSERVED: "−4.713"
- MOLECULE: "CCCCC/C=C\\C/C=C\\CCCCCCCCN(CCCCCCCC(=O)OC(CCCCCCCC)CCCCCCCC)CCCOC(=O)NCCN(C)C"
  VALUE OBSERVED: 6.102
- MOLECULE: "CCCCC/C=C\\C/C=C\\CCCCCCCCN(CCCCCCCC(=O)OC(CCCCCCCC)CCCCCCCC)CCCOC(=O)NCCN1CCCCC1"
  VALUE OBSERVED: 0.3567
- MOLECULE: "CCCCCCCCC(CCCCCC)C(=O)OCCCCCCCCN(CCCCCCCCOC(=O)C(CCCCCC)CCCCCCCC)CCCOC(=O)NCCN1CCCCC1 (stereo not shown)"
  VALUE OBSERVED: "−2.552"
- MOLECULE: "CCCCCCCCCCCOC(=O)CCCCCN(CCCCCCCC(=O)OC(CCCCCCCC)CCCCCCCC)CCOC(=O)NCCN1CCCCC1"
  VALUE OBSERVED: "−0.3264"
- MOLECULE: "CCCCCCCCC(CCCCCCCC)OC(=O)CCCCCCCN(CCCCCCCCOC(=O)C(CCCCCC)CCCCCCCC)CCOC(=O)NCCN(C)C (stereo not shown)"
  VALUE OBSERVED: 2.213
- MOLECULE: "CCCCC/C=C\\CCOC(=O)CCCCCN(CCCCCC(=O)OCC(CCCCCCCC)CCCCCCCCCC)CCOC(=O)NCCN1CCCCC1 (stereo not shown)"
  VALUE OBSERVED: 2.004
- MOLECULE: "CCCCCCCCC(CCCCCCCC)OC(=O)CCCCCCCN(CCCCCCCCOC(=O)C(CCCCCC)CCCCCCCC)CCCOC(=O)NCCCN(C)C (stereo not shown)"
  VALUE OBSERVED: 8.774
- MOLECULE: "CCCCC/C=C\\C/C=C\\CCCCCCCCN(CCCCCCCC(=O)OC(CCCCCCCC)CCCCCCCC)CCCOC(=O)NCCCn1ccnc1"
  VALUE OBSERVED: 0.8258
- MOLECULE: "CCCCCCCCCCC(CCCCCCCC)COC(=O)CCCCCN(CCCCCCCCOC(=O)C(CCCCCC)CCCCCCCC)CCOC(=O)NCCN(C)C (stereo not shown)"
  VALUE OBSERVED: 3.197
- MOLECULE: "CCCCCCCCC(CCCCCCCC)OC(=O)CCCCCCCN(CCCCCCCCOC(=O)C(CCCCCC)CCCCCCCC)CCOC(=O)NCCN1CCCC1 (stereo not shown)"
  VALUE OBSERVED: 3.769
- MOLECULE: "CCCCCCCCCCC(CCCCCCCC)COC(=O)CCCCCN(CCCCCC(=O)OCC(CCCCCCCC)CCCCCCCCCC)CCOC(=O)NCCN(C)C (stereo not shown)"
  VALUE OBSERVED: 3.233

====

assay: LNP size and polydispersity index (PDI) by dynamic light scattering; assay type: physicochemical; details: LNP with cirRNA (SEQ ID NO: 1)
Catalogue of PDI values

- COMPOUND: "CCCCC/C=C\\C/C=C\\CCCCCCCCN(CCCCCCCC(=O)OC(CCCCCCCC)CCCCCCCC)CCCOC(=O)NCCCN(C)C"
  PDI: 0.2727
- COMPOUND: "CCCCC/C=C\\C/C=C\\CCCCCCCCN(CCCCCCCC(=O)OC(CCCCCCCC)CCCCCCCC)CCCOC(=O)NCCN(C)C"
  PDI: 0.258
- COMPOUND: "CCCCCCCCCCC(CCCCCCCC)COC(=O)CCCCCN(CCCCCC(=O)OCC(CCCCCCCC)CCCCCCCCCC)CCCOC(=O)NCCN1CCN(C)CC1 (stereo not drawn)"
  PDI: 0.2544
- COMPOUND: "CCCCCCCCC(CCCCCCCC)OC(=O)CCCCCCCN(CCCCCCCCOC(=O)C(CCCCCC)CCCCCCCC)CCCOC(=O)NCCN1CCCC1 (stereo not drawn)"
  PDI: 0.1717
- COMPOUND: "CCCCC/C=C\\CCOC(=O)CCCCCN(CCCCCCCCOC(=O)C(CCCCCC)CCCCCCCC)CCOC(=O)NCCCN(CC)CC (stereo not drawn)"
  PDI: 0.4618
- COMPOUND: "CCCCCCCCCCC(CCCCCCCC)COC(=O)CCCCCN(CCCCCCCCOC(=O)C(CCCCCC)CCCCCCCC)CCOC(=O)NCCN(C)C (stereo not drawn)"
  PDI: 0.04

====

test system: RAW 264.7 cells; test: In vitro toxicity (CellTiter-Glo cell viability), RAW 264.7; format: cell-based; conditions: mRNA (SEQ ID NO: 2) LNP, 1 μg/mL, 72 hours post transfection;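 further: percent of untreated cells luminescence signal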
# In vitro Viability RAW per entry

- COMPOUND: "CCCCC/C=C\\CCOC(=O)CCCCCN(CCCCCC(=O)OCC(CCCCCCCC)CCCCCCCCCC)CCOC(=O)NCCN1CCCCC1 (stereo not shown)"
  UNIT ABBREV: "%"
  In vitro Viability RAW: 89
- COMPOUND: "CCCCCCCCC(CCCCCCCC)OC(=O)CCCCCCCN(CCCCCCCCOC(=O)C(CCCCCC)CCCCCCCC)CCOC(=O)NCCN1CCCC1 (stereo not shown)"
  UNIT ABBREV: "%"
  In vitro Viability RAW: 102
- COMPOUND: "CCCCCCCCC(CCCCCCCC)OC(=O)CCCCCCCN(CCCCCCCCOC(=O)C(CCCCCC)CCCCCCCC)CCCOC(=O)NCCN1CCCC1 (stereo not shown)"
  UNIT ABBREV: "%"
  In vitro Viability RAW: 86
- COMPOUND: "CCCCCCCCC(CCCCCCCC)OC(=O)CCCCCCCN(CCCCCCCCOC(=O)C(CCCCCC)CCCCCCCC)CCCOC(=O)NCCN1CCCCCC1 (stereo not shown)"
  UNIT ABBREV: "%"
  In vitro Viability RAW: 65
- COMPOUND: "CCCCC/C=C\\C/C=C\\CCCCCCCCN(CCCCCCCC(=O)OC(CCCCCCCC)CCCCCCCC)CCCOC(=O)NCCN(C)C"
  UNIT ABBREV: "%"
  In vitro Viability RAW: 96
- COMPOUND: "CCCCC/C=C\\C/C=C\\CCCCCCCCN(CCCCCCCC/C=C\\C/C=C\\CCCCC)CCOC(=O)[C@@H](N)Cc1c[nH]cn1 [Lipid B, reference compound]"
  UNIT ABBREV: "%"
  In vitro Viability RAW: 92
- COMPOUND: "CCCCC/C=C\\C/C=C\\CCCCCCCCN(CCCCCCCC(=O)OC(CCCCCCCC)CCCCCCCC)CCOC(=O)NCCN1CCCC1"
  UNIT ABBREV: "%"
  In vitro Viability RAW: 92
- COMPOUND: "CCCCCCCCC(CCCCCC)C(=O)OCCCCCCCCN(CCCCCCCCOC(=O)C(CCCCCC)CCCCCCCC)CCCOC(=O)NCCN(C)C (stereo not shown)"
  UNIT ABBREV: "%"
  In vitro Viability RAW: 84
- COMPOUND: "CCCCCCCCCC(=O)OCCCCCCCN(CCCCCCCCOC(=O)C(CCCCCC)CCCCCCCC)CCOC(=O)NCCN(C)C (stereo not shown)"
  UNIT ABBREV: "%"
  In vitro Viability RAW: 0
- COMPOUND: "CCCCCCCCC(CCCCCCCC)OC(=O)CCCCCCCN(CCCCCCCCOC(=O)C(CCCCCC)CCCCCCCC)CCOC(=O)NCCN(C)C (stereo not shown)"
  UNIT ABBREV: "%"
  In vitro Viability RAW: 72
- COMPOUND: "CCCCC/C=C\\C/C=C\\CCCCCCCCN(CCCCCCCC/C=C\\CCCCCCCC)CCOC(=O)NCc1ncc[nH]1"
  UNIT ABBREV: "%"
  In vitro Viability RAW: 104
- COMPOUND: "CCCCC/C=C\\C/C=C\\CCCCCCCCN(CCCCCCCC(=O)OC(CCCCCCCC)CCCCCCCC)CCCOC(=O)NCCN1CCCCC1"
  UNIT ABBREV: "%"
  In vitro Viability RAW: 83
- COMPOUND: "CCCCCCCCCCCOC(=O)CCCCCN(CCCCCCCC(=O)OC(CCCCCCCC)CCCCCCCC)CCOC(=O)NCCN1CCCCC1"
  UNIT ABBREV: "%"
  In vitro Viability RAW: 101
